- Tested on: E. faecalis VRE 53
- Assay Explanation: MIC, broth microdilution, vancomycin-resistant E. faecalis VRE 53 (VanA)
- Type: cell-based, Enterococcus faecalis
- Setup Conditions: Enterococcus faecalis VRE 53 (vancomycin-resistant); read-out: MIC

Compound	Result Units	MIC
CCCCCc1ccc(NC(=O)CNC(=O)[C@H]2NC(=O)[C@H]3NC(=O)[C@H](NC(=O)[C@@H]4NC(=O)[C@H](CC(N)=O)NC(=O)[C@H](NC(=O)[C@@H](CC(C)C)NC)[C@H](O)c5ccc(c(Cl)c5)Oc5cc4cc(c5O[C@@H]4O[C@H](CO)[C@@H](O)[C@H](O)[C@H]4O[C@H]4C[C@](C)(N)[C@H](O)[C@H](C)O4)Oc4ccc(cc4Cl)[C@H]3O)c3ccc(O)c(c3)-c3c(O)cc(O)cc32)cc1 [Vanc-74]	µM	6.25
CNC(CC(C)C)C(=O)NC1C(=O)NC(CC(N)=O)C(=O)NC2C(=O)NC3C(=O)NC(C(=O)NC(C(=O)NCC(=O)Nc4ccc(-c5ccccc5)cc4)c4cc(O)cc(O)c4-c4cc3ccc4O)C(O)c3ccc(c(Cl)c3)Oc3cc2cc(c3OC2OC(CO)C(O)C(O)C2OC2CC(C)(N)C(O)C(C)O2)Oc2ccc(cc2Cl)C1O (stereo not drawn) [Vanc-83]	µM	1.56
CNC(CC(C)C)C(=O)NC1C(=O)NC(CC(N)=O)C(=O)NC2C(=O)NC3C(=O)NC(C(=O)NC(C(=O)NCCCNC(=O)c4ccc(-c5ccccc5)cc4)c4cc(O)cc(O)c4-c4cc3ccc4O)C(O)c3ccc(c(Cl)c3)Oc3cc2cc(c3OC2OC(CO)C(O)C(O)C2OC2CC(C)(N)C(O)C(C)O2)Oc2ccc(cc2Cl)C1O (stereo not drawn) [Vanc-33]	µM	25
CNC(CC(C)C)C(=O)NC1C(=O)NC(CC(N)=O)C(=O)NC2C(=O)NC3C(=O)NC(C(=O)NC(C(=O)NCCNC(=O)C=Cc4ccccc4)c4cc(O)cc(O)c4-c4cc3ccc4O)C(O)c3ccc(c(Cl)c3)Oc3cc2cc(c3OC2OC(CO)C(O)C(O)C2OC2CC(C)(N)C(O)C(C)O2)Oc2ccc(cc2Cl)C1O (stereo not drawn) [Vanc-21]	µM	12.5
CCCCC#Cc1ccc(NC(=O)CNC(=O)[C@H]2NC(=O)[C@H]3NC(=O)[C@H](NC(=O)[C@@H]4NC(=O)[C@H](CC(N)=O)NC(=O)[C@H](NC(=O)[C@@H](CC(C)C)NC)[C@H](O)c5ccc(c(Cl)c5)Oc5cc4cc(c5O[C@@H]4O[C@H](CO)[C@@H](O)[C@H](O)[C@H]4O[C@H]4C[C@](C)(N)[C@H](O)[C@H](C)O4)Oc4ccc(cc4Cl)[C@H]3O)c3ccc(O)c(c3)-c3c(O)cc(O)cc32)cc1 [Vanc-37]	µM	3.13
CCCCC#Cc1ccc(/C=C/C(=O)NCCNC(=O)[C@H]2NC(=O)[C@H]3NC(=O)[C@H](NC(=O)[C@@H]4NC(=O)[C@H](CC(N)=O)NC(=O)[C@H](NC(=O)[C@@H](CC(C)C)NC)[C@H](O)c5ccc(c(Cl)c5)Oc5cc4cc(c5O[C@@H]4O[C@H](CO)[C@@H](O)[C@H](O)[C@H]4O[C@H]4C[C@](C)(N)[C@H](O)[C@H](C)O4)Oc4ccc(cc4Cl)[C@H]3O)c3ccc(O)c(c3)-c3c(O)cc(O)cc32)cc1 [Vanc-48]	µM	6.25

----------
- Tested on: E. faecalis VRE 53
- Assay Explanation: MIC, broth microdilution, vancomycin-resistant E. faecalis VRE 53 (VanA)
- Format: cell-based, Enterococcus faecalis
- Setup Conditions: VRE 53; ratio of MIC of vancomycin and MIC of analogue
Readout: MIC-fold improvement vs. vancomycin

Molecule	Readout	Test Result
CCCCc1ccc(NC(=O)CNC(=O)[C@H]2NC(=O)[C@H]3NC(=O)[C@H](NC(=O)[C@@H]4NC(=O)[C@H](CC(N)=O)NC(=O)[C@H](NC(=O)[C@@H](CC(C)C)NC)[C@H](O)c5ccc(c(Cl)c5)Oc5cc4cc(c5O[C@@H]4O[C@H](CO)[C@@H](O)[C@H](O)[C@H]4O[C@H]4C[C@](C)(N)[C@H](O)[C@H](C)O4)Oc4ccc(cc4Cl)[C@H]3O)c3ccc(O)c(c3)-c3c(O)cc(O)cc32)cc1	MIC-fold improvement vs. vancomycin	8
CN[C@H](CC(C)C)C(=O)N[C@H]1C(=O)N[C@@H](CC(N)=O)C(=O)N[C@H]2C(=O)N[C@H]3C(=O)N[C@H](C(=O)N[C@H](C(=O)NCCNC(=O)/C=C/c4ccc(Cl)cc4Cl)c4cc(O)cc(O)c4-c4cc3ccc4O)[C@H](O)c3ccc(c(Cl)c3)Oc3cc2cc(c3O[C@@H]2O[C@H](CO)[C@@H](O)[C@H](O)[C@H]2O[C@H]2C[C@](C)(N)[C@H](O)[C@H](C)O2)Oc2ccc(cc2Cl)[C@H]1O	MIC-fold improvement vs. vancomycin	32
CN[C@H](CC(C)C)C(=O)N[C@H]1C(=O)N[C@@H](CC(N)=O)C(=O)N[C@H]2C(=O)N[C@H]3C(=O)N[C@H](C(=O)N[C@H](C(=O)NCC(=O)Nc4ccc(F)cc4F)c4cc(O)cc(O)c4-c4cc3ccc4O)[C@H](O)c3ccc(c(Cl)c3)Oc3cc2cc(c3O[C@@H]2O[C@H](CO)[C@@H](O)[C@H](O)[C@H]2O[C@H]2C[C@](C)(N)[C@H](O)[C@H](C)O2)Oc2ccc(cc2Cl)[C@H]1O	MIC-fold improvement vs. vancomycin	16
CNC(CC(C)C)C(=O)NC1C(=O)NC(CC(N)=O)C(=O)NC2C(=O)NC3C(=O)NC(C(=O)NC(C(=O)NCCCNC(=O)c4ccc5ccccc5n4)c4cc(O)cc(O)c4-c4cc3ccc4O)C(O)c3ccc(c(Cl)c3)Oc3cc2cc(c3OC2OC(CO)C(O)C(O)C2OC2CC(C)(N)C(O)C(C)O2)Oc2ccc(cc2Cl)C1O (stereo not shown)	MIC-fold improvement vs. vancomycin	16
CNC(CC(C)C)C(=O)NC1C(=O)NC(CC(N)=O)C(=O)NC2C(=O)NC3C(=O)NC(C(=O)NC(C(=O)NCCNC(=O)C4c5ccccc5-c5ccccc54)c4cc(O)cc(O)c4-c4cc3ccc4O)C(O)c3ccc(c(Cl)c3)Oc3cc2cc(c3OC2OC(CO)C(O)C(O)C2OC2CC(C)(N)C(O)C(C)O2)Oc2ccc(cc2Cl)C1O (stereo not shown)	MIC-fold improvement vs. vancomycin	16
CCc1ccc(NC(=O)CNC(=O)[C@H]2NC(=O)[C@H]3NC(=O)[C@H](NC(=O)[C@@H]4NC(=O)[C@H](CC(N)=O)NC(=O)[C@H](NC(=O)[C@@H](CC(C)C)NC)[C@H](O)c5ccc(c(Cl)c5)Oc5cc4cc(c5O[C@@H]4O[C@H](CO)[C@@H](O)[C@H](O)[C@H]4O[C@H]4C[C@](C)(N)[C@H](O)[C@H](C)O4)Oc4ccc(cc4Cl)[C@H]3O)c3ccc(O)c(c3)-c3c(O)cc(O)cc32)cc1	MIC-fold improvement vs. vancomycin	32
CN[C@H](CC(C)C)C(=O)N[C@H]1C(=O)N[C@@H](CC(N)=O)C(=O)N[C@H]2C(=O)N[C@H]3C(=O)N[C@H](C(=O)N[C@H](C(=O)NCC(=O)Nc4ccc(N5CCOCC5)cc4)c4cc(O)cc(O)c4-c4cc3ccc4O)[C@H](O)c3ccc(c(Cl)c3)Oc3cc2cc(c3O[C@@H]2O[C@H](CO)[C@@H](O)[C@H](O)[C@H]2O[C@H]2C[C@](C)(N)[C@H](O)[C@H](C)O2)Oc2ccc(cc2Cl)[C@H]1O	MIC-fold improvement vs. vancomycin	32
CN[C@H](CC(C)C)C(=O)N[C@H]1C(=O)N[C@@H](CC(N)=O)C(=O)N[C@H]2C(=O)N[C@H]3C(=O)N[C@H](C(=O)N[C@H](C(=O)NCC(=O)Nc4ccc(OC)cc4)c4cc(O)cc(O)c4-c4cc3ccc4O)[C@H](O)c3ccc(c(Cl)c3)Oc3cc2cc(c3O[C@@H]2O[C@H](CO)[C@@H](O)[C@H](O)[C@H]2O[C@H]2C[C@](C)(N)[C@H](O)[C@H](C)O2)Oc2ccc(cc2Cl)[C@H]1O	MIC-fold improvement vs. vancomycin	32
CCCCC[N+](C)(C)CCCNC(=O)c1ccc(NC(=O)CNC(=O)C2NC(=O)C3NC(=O)C(NC(=O)C4NC(=O)C(CC(N)=O)NC(=O)C(NC(=O)C(CC(C)C)NC)C(O)c5ccc(c(Cl)c5)Oc5cc4cc(c5OC4OC(CO)C(O)C(O)C4OC4CC(C)(N)C(O)C(C)O4)Oc4ccc(cc4Cl)C3O)c3ccc(O)c(c3)-c3c(O)cc(O)cc32)cc1 (stereo not shown)	MIC-fold improvement vs. vancomycin	8
CN[C@H](CC(C)C)C(=O)N[C@H]1C(=O)N[C@@H](CC(N)=O)C(=O)N[C@H]2C(=O)N[C@H]3C(=O)N[C@H](C(=O)N[C@H](C(=O)NCC(=O)Nc4ccccc4)c4cc(O)cc(O)c4-c4cc3ccc4O)[C@H](O)c3ccc(c(Cl)c3)Oc3cc2cc(c3O[C@@H]2O[C@H](CO)[C@@H](O)[C@H](O)[C@H]2O[C@H]2C[C@](C)(N)[C@H](O)[C@H](C)O2)Oc2ccc(cc2Cl)[C@H]1O	MIC-fold improvement vs. vancomycin	16

The reported measurements were obtained from paper PMC6001238.
